I'd be grateful if you could share measured pEC50 for these entries.
- testedOn: T1, Biotin sY51 PSGL-1(42-62) peptide (human, sulfotyrosine at Y51; C-terminal Lys-biotin)
- T1 construct: also called Y51(SO3) PSGL-1(42-62)
- T1 peptide: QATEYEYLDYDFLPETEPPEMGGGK
- measurementProtocol: ELISA, plate-bound mAb captures biotin peptide
pEC50: −log10 of the molar value.

Some binders with recorded pEC50:
binder	pEC50
03D07 (antibody, IgG4, V domains shown) VH: EVKLLESGGGLVQPGGSLRLSCAASGFTFSSYALSWVRQAPGKGLEWVSAISGSGGNTYYADSVKGRFTISRDNSKNTLYLQMNSLRAEDTAVYYCAKVVGATNYWGQGTLVTVSS VL: DIVMTQTPLSLPVTLGQPASISCRSSQSLVYSDGHTYLSWFHQRPGQSPRRLIYKVSIRDSGVPDRFSGSGSGTDFTLKISRVEAEDVGVYYCMQRLQIPLTFGGGTKVEIK	~5.70
20I15 (antibody, V domains shown, From mouse immunisation; only variable domains given; also called 20115) VH: EVKLVESGGGLVQPGGSLSLSCAASGFTFTDYYMSWVRQPPGKALEWLGFIRNKANGYTTEYSASVKGRFTISRDNSQSILYLQMNALRAEDSATYYCARTYLRRGYFDVWGTGTTVTVSS VL: DIVLTQSPASLAVSLGQRATISCRASKSVSTSGYSYMHWFQQKPGQPPKLLIYLASNLESGVPARFSGSGSGTDFTLNIHPVEEEDAATYYCQHSRELPLTFGAGTKLELK	~5.52

Now turn to the next binder.
input: GET /values?readout=pEC50&item= PSG3 (antibody, V domains shown, Control anti-PSGL-1 mAb; only variable domains given) VH: QVQLVQSGAEVKKPGSSVRVSCKASGGSFSSYGIHWVQQAPGQGLEWMGRIIPVLRIRNYAQKFHDRVTIDADTSTGTAYMELSSLTSDDTAVYYCAGSRQGVAPTGYWGQGTMVTVSS VL: QAVLTQPSSLSASPGASASLTCNLRSGIDVGTYRIYWYQQKPGSPPQYLLRYKSDSDKQQGSGVPSRFSGTKDASANAGILLISGLQSEDEADYYCMIWHSNGWVFGGGTKLTVL
output: ~6.22

From: patent US20220396632A1
